Target: Chicken CapZ (full length α/β) (chicken, UniProt P13127 1-286; P14315 1-277)
Test: ITC
observedProperty: pKd
// scale note: pKd = -log10(conc_M); give the bare number

Problem: # lookup: pKd of SKREETKLTHFVRERAQGPRGRRLPAHLQAKIKRVSLDKPH [RavB^108-148 synthetic peptide]
Solution: 6.77
